For each of the compounds below, state its pIC50.
target: Recombinant Human NF-kappaB-Inducing Kinase (NIK/MAP3K14) (Homo sapiens); test: Inhibition of auto-phosphorylation of recombinant human NIK/MAP3K14 activity (AlphaScreen); conditions: 5 μM ATP, 1 nM NIK, average if tested more than once
Sequence (Q99558 whole entry): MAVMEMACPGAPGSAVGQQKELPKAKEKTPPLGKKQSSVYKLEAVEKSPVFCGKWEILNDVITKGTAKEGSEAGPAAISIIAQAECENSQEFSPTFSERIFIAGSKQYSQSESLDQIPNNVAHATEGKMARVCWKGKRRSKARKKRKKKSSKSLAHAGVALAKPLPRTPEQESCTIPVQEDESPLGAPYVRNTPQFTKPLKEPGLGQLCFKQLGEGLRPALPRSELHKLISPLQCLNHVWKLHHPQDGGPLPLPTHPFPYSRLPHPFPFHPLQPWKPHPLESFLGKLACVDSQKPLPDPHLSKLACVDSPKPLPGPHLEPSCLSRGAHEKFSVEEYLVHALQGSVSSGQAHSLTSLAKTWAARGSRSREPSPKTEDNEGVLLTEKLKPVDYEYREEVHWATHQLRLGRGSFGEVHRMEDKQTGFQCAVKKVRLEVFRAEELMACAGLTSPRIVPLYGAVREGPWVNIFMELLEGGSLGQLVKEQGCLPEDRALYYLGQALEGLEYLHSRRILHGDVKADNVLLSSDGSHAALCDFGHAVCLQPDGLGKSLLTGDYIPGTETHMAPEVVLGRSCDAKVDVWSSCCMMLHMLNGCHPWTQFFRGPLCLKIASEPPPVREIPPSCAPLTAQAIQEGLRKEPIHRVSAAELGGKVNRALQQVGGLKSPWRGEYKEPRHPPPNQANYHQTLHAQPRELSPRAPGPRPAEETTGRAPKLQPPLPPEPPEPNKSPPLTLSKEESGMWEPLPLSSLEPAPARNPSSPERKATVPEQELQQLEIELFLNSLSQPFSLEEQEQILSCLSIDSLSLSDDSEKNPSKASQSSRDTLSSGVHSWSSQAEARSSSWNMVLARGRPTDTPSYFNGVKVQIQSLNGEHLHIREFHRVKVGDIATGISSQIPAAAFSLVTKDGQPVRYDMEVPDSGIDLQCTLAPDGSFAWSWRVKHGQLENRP
pIC50: −log10 of the molar value.

pIC50 for CN1CC[C@@](O)(c2cccc(-c3nc(-c4ccnc(Nc5ccn(C6CC6)n5)n4)cs3)c2)C1=O ? > 7.00

pIC50 for CN1CC[C@@](O)(c2cccc(-c3nc(-c4ccnc(Nc5cn(C6CCC6)cn5)n4)cs3)c2)C1=O ? > 7.00

pIC50 for COc1cc(Nc2nccc(-c3nc(-c4cccc([C@]5(O)CCN(C)C5=O)c4)cs3)n2)n(C)n1 ? < 6.30

pIC50 for Cc1cn(CC(F)(F)F)nc1Nc1nccc(-c2csc(-c3cccc([C@]4(O)CCN(C)C4=O)c3)n2)n1 ? < 6.30

pIC50 for CN1CC[C@@](O)(c2cccc(-c3ccn(-c4ccnc(Nc5cn(CC(F)F)nc5OC5CC5)n4)n3)c2)C1=O ? > 7.00

pIC50 for CN1CC[C@@](O)(c2cccc(-c3nc(-c4ccnc(Nc5cn(CC6CCC6)cn5)n4)cs3)c2)C1=O ? > 7.00

pIC50 for CN1CC[C@@](O)(c2cccc(-c3nc(-c4ccnc(Nc5ccnnc5)n4)cs3)c2)C1=O ? < 6.30

pIC50 for CN1CC(F)(F)C(O)(c2cccc(-c3nc(-c4ccnc(Nc5ccn(C)n5)n4)cs3)c2)C1=O (single isomer, unassigned) [Example 35] ? < 6.30

pIC50 for CN1CCC(O)(c2ccnc(-c3cccc(-c4ccnc(Nc5ccn(C)n5)n4)n3)c2)C1=O (racemic) ? < 6.30

pIC50 for CN1CC[C@@](O)(c2cccc(-c3coc(-c4ccnc(Nc5ccn(C)n5)n4)n3)c2)C1=O ? > 7.00

pIC50 for CC(=O)N1CC[C@@H](Nc2nccc(-c3csc(-c4cccc([C@]5(O)CCN(C)C5=O)c4)n3)n2)C1 ? > 7.00

pIC50 for CC(C)Oc1nn(C)cc1Nc1nccc(-c2csc(-c3cccc([C@]4(O)CCN(C)C4=O)c3)n2)n1 ? > 7.00

###

tested on: p-IKKa levels in L363 (NIK translocated multiple myeloma) cells; assay: Effect of compounds on p-IKKa levels in L363 (NIK translocated multiple myeloma) cells (AlphaLISA SureFire Ultra p-IKKa Ser176/180); assay type: cell-based, human; conditions: Homo sapiens, L-363, p-IKKa levels in L363 cells; average if tested more than once; read-out: Assay 2 IC50
pIC50: −log10 of the molar value.
ASSAY_READOUT: pIC50

pIC50 for C[C@H](Nc1nccc(-c2csc(-c3cccc([C@]4(O)CCN(C)C4=O)c3)n2)n1)c1cncn1C (single isomer, unassigned) ? < 6.30

pIC50 for CN1CC[C@@](O)(c2cccc(-c3nc(-c4ccnc(N[C@H]5CCCc6cn[nH]c65)n4)cs3)c2)C1=O (single isomer, unassigned) ? < 6.30

pIC50 for COCCOc1nn(CC(F)F)cc1Nc1nccc(-c2csc(-c3cccc([C@]4(O)CCN(C)C4=O)c3)n2)n1 ? > 7.00

pIC50 for CC(Nc1nccc(-c2csc(-c3cccc([C@]4(O)CCN(C)C4=O)c3)n2)n1)c1cnn(C)c1 (stereo partly drawn) ? 6.30 to 7.00

pIC50 for CN1CC[C@@](O)(c2cccc(-c3csc(-c4ccnc(Nc5cnn(C6CCS(=O)(=O)CC6)c5)n4)n3)c2)C1=O ? 6.30 to 7.00

pIC50 for CN1CC[C@@](O)(c2cccc(-c3ccn(-c4ccnc(Nc5cnn(C)c5)n4)n3)c2)C1=O ? 6.30 to 7.00

###

biological target: Recombinant Human NF-kappaB-Inducing Kinase (NIK/MAP3K14) (Homo sapiens); assay: Inhibition of auto-phosphorylation of recombinant human NIK/MAP3K14 activity (AlphaScreen); details: 5 μM ATP, 1 nM NIK, average if tested more than once
pIC50: −log10 of the molar value.
For each of the compounds below, state its pIC50.

pIC50 for CNC(=O)c1cc(Nc2nccc(-c3csc(-c4cccc([C@]5(O)CCN(C)C5=O)c4)n3)n2)n(CC(C)C)n1 [Example 13] ? > 7.00

pIC50 for CC(Nc1nccc(-c2csc(-c3cccc([C@]4(O)CCN(C)C4=O)c3)n2)n1)c1cnn(C)c1 (stereo partly drawn) [Example 121] ? > 7.00

pIC50 for CN1CC[C@@](O)(c2cccc(-c3cccc(-c4ccnc(Nc5ccn(C)n5)n4)n3)c2)C1=O [Example 22] ? < 6.30
